Provide the reported growth of each item.
Test system: OVCAR-5 ovarian
Assay: NCI-60 one-dose screen, 48 h (100 = growth as untreated, 0 = no growth, -100 = all killed)
Conditions: 10 µM unless noted
Experimental: Growth inhibition of the OVCAR-5 human tumor cell line is measured as a screen for anti-cancer activity. Cells are grown in 96 well plates and exposed to the test compound for 48 hours. Compounds are tested at a single concentration, which is 10^-5 M for most compounds. The reported endpoint is percent growth (GI% or GIPRCNT), where numbers from 0 - 100% represent growth inhibition, and numbers from -100% - 0 represent cell death. For example, a value of 40 represents 60% growth inhibition. […]
The panel holds about 83,000 compounds, 20% with a hit somewhere; the sample as a whole holds those more often.
Answers are plain numbers, in %.

[[record]]
smiles_entry = "OCc1cnc2ccccc2c1NC1CCCCCC1"
readout_type = "growth"
quantitative_readout = 100

[[record]]
smiles_entry = "COc1ccc(/C=C2\\Oc3cc(OCCCN4CCCCC4)ccc3C2=O)cc1OC"
readout_type = "growth"
quantitative_readout = 95.2

[[record]]
smiles_entry = "N#C/C(=C\\c1ccc(C(F)(F)F)cc1)c1cc2ccccc2[nH]1"
readout_type = "growth"
quantitative_readout = 108

[[record]]
smiles_entry = "CCCOc1ccc(/C=N/Nc2cc(C)nc3ccc(Cl)cc23)cc1"
readout_type = "growth"
quantitative_readout = 96.3

[[record]]
smiles_entry = "CC(=O)Nc1cccc(-c2ccc3c(c2)NC(=O)/C3=C\\c2ccc[nH]2)c1"
readout_type = "growth"
quantitative_readout = 38.4


Dear colleague, could you send me growth for each of the items below? Thanks.
1. CC(=O)[C@@H]1CC[C@]2(C(N)=O)CC[C@]3(C)[C@H](CC[C@@H]4[C@@]5(C)CCCNC(C)(C)[C@@H]5CC[C@]43C)[C@@H]12
2. O=C(Nc1ccccc1C(=O)N/N=C(\c1ccccc1)c1ccccn1)c1ccc(F)cc1
3. CCCCCN1C=C/C(=C\C(=O)N(C)c2ccc(Oc3ccccc3)cc2)c2ccccc21
4. O=S(=O)(NCCNc1nccc(-c2c(-c3cccc(F)c3)nc3sccn23)n1)c1ccccc1
5. COc1ccc(C(=O)CC#N)cc1

1: 91.5; 2: 41.7; 3: 92.9; 4: 79.6; 5: 105

Entry under test: O=C(Nc1ccc(F)cc1)Nc1ccc(NC(=O)c2cc(Cl)nc3ccccc23)cc1 . Its growth was 92.9

----------
System: PC-3 prostate
Test: NCI-60 one-dose screen, 48 h (100 = growth as untreated, 0 = no growth, -100 = all killed)
Conditions: 10 µM unless noted
The panel holds about 83,000 compounds, 20% with a hit somewhere; the sample as a whole holds those more often. Active and inactive are the calls of the source. Rule for the calls: active = growth percent below 10; inactive = the rest.
Provide the reported growth of each item.

[[record]]
compound = "COc1cc(NC(=O)CSc2nc3ccc(C)cc3c(=O)n2Cc2ccccc2)cc(OC)c1OC"
result = "74.1% (inactive)"

[[record]]
compound = "C=C(CBr)[C@@H]1CC[C@]2(COC(C)=O)CC[C@]3(C)[C@H](CC[C@@H]4[C@@]5(C)CCCNC(C)(C)[C@@H]5CC[C@]43C)[C@@H]12"
result = "12.9% (inactive)"

[[record]]
compound = "CN(C)c1ccc(C2C(C#N)=C(/N=C/c3ccccc3)Oc3c2ccc2ccccc32)cc1 (configuration not stated)"
result = "50.7% (inactive)"

[[record]]
compound = "ClC1=C(Br)C(Br)(Br)C(=C(Br)Br)C1(Br)Br"
result = "82.8% (inactive)"


Dear colleague, could you send me growth for each of the items below? Thanks.
1. CCN(CC)CCOc1ccc(NC(=O)C(C(C)C)N2C(=O)/C(=C/c3ccc(Br)cc3)SC2=S)cc1 (configuration not stated)
2. Oc1ccc(C2c3ccccc3Oc3ccccc32)c2cccnc12
3. COC(=O)CNC(=O)[C@]12CCC(C)(C)C[C@H]1C1=CC[C@@H]3[C@@]4(C)Cc5c([nH]c6ccccc56)C(C)(C)[C@@H]4CC[C@@]3(C)[C@]1(C)CC2
4. CC(=O)[C@@H]1CC[C@]2(C(N)=O)CC[C@]3(C)[C@H](CC[C@@H]4[C@@]5(C)CCCNC(C)(C)[C@@H]5CC[C@]43C)[C@@H]12

64.5% (inactive)
34.2% (inactive)
74.4% (inactive)
65.5% (inactive)

Dear colleague, could you send me growth for each of the items below? Thanks.
1. O=C(c1nnc(Nc2ccccc2Br)o1)c1c[nH]c2ccccc12
2. CN(C)CCn1c2ccc(Br)cc2c2nc3ccccc3nc21

1: 87.6% (inactive); 2: 34% (inactive)

Dear colleague, could you send me growth for each of the items below? Thanks.
1. O=[N+]([O-])c1cc(Br)c2cccc3c2c1CC3
2. C[C@H]1[C@H](C)CC[C@]2(C(=O)NCC#CCN3CCN(C)CC3)CC[C@]3(C)C(=CC[C@@H]4[C@@]5(C)Cc6c([nH]c7ccccc67)C(C)(C)[C@@H]5CC[C@]43C)[C@H]12

["96.2% (inactive)", "69.8% (inactive)"]

Dear colleague, could you send me growth for each of the items below? Thanks.
1. Cc1cnc(C(=O)Nc2nc3ccc(S(=O)(=O)Nc4ccc(C5(C(F)(F)F)CC5)cc4)cc3[nH]2)cn1
2. Cc1cccc(-c2cn3ccnc3c(-c3ccc4ncn(Cc5ccccc5)c4c3)n2)c1
3. COc1ccc2nc(-c3ccc(-c4noc(-c5cc(OC)c(OC)c(OC)c5)n4)cc3)[nH]c2c1
4. CSc1nc2sc3cccc(Cl)c3n2c(=N)c1C#N
5. CCCNC(=O)Oc1ccc(/C(=C(\C)c2ccccc2)c2ccc(OCCCN(C)C)cc2)cc1
6. COc1ccc(NC(=O)c2cc(NCc3cc(O)ccc3O)ccc2O)cc1
7. COc1cc2nc(-c3ccc(Cl)cc3)cc(OCCCN3CCC(O)CC3)c2cc1OC
8. NS(=O)(=O)c1ccc(CCN2C(=O)c3cc(Cl)c(Cl)cc3C2=O)cc1

1. 18% (inactive)
2. 75.2% (inactive)
3. 95.2% (inactive)
4. 90.8% (inactive)
5. 71.7% (inactive)
6. 64.1% (inactive)
7. 41.7% (inactive)
8. 99.2% (inactive)

----------
Test system: ACHN renal
Assay: NCI-60 one-dose screen, 48 h
Settings: 10 µM unless noted
This is part of a sample that, as a whole, favours compounds with a hit. Of some 83,000 tested, about 20% had one in any assay. Active and inactive are the calls of the source. The calls were made as follows: active = growth percent below 10; inactive = the rest.
Returns: one label drawn from class 1 for active, class 0 for inactive

Sample answers from the record:
[[record]]
compound = "Cc1ccccc1NS(=O)(=O)c1cccc(C(=O)Nc2ccc(Br)cc2)c1"
class_name = "class 0"

[[record]]
compound = "Fc1ccc2c(-c3cncn3CCc3ccccc3)c[nH]c2c1"
class_name = "class 0"


Please find the next compound below.
Dear all, I need the recorded test outcome for COC(=O)C1=C(C(=O)ON)[C@@H]2C=C[C@@]1([C@@H](Cc1ccccc1)Nc1ccccc1)O2 , thank you.
class 1

----------
Provide the reported growth of each item.
Test system: UACC-257 melanoma
Experiment: NCI-60 one-dose screen, 48 h (100 = growth as untreated, 0 = no growth, -100 = all killed)
Conditions: 10 µM unless noted
Experimental: Cells are grown in 96 well plates and exposed to the test compound for 48 hours. Compounds are tested at a single concentration, which is 10^-5 M for most compounds. The reported endpoint is percent growth (GI% or GIPRCNT), where numbers from 0 - 100% represent growth inhibition, and numbers from -100% - 0 represent cell death. For example, a value of 40 represents 60% growth inhibition. A value of 0 means no net growth occurred over the course of the experiment. […]
Compounds without any hit were thinned out: in the full panel of roughly 83,000, 20% have a hit.
Give bare numbers, in %.

Examples from the recorded data:
[[record]]
compound = "O=S(=O)(NCCNc1nccc(-c2c(-c3cccc(O)c3)nc3occn23)n1)c1ccc(Cl)cc1"
readout_type = "growth"
unit_descriptor = "%"
quantitative_readout = 46.9

[[record]]
compound = "COc1ccc(C(=O)CC#N)cc1"
readout_type = "growth"
unit_descriptor = "%"
quantitative_readout = 102

[[record]]
compound = "Cn1cc(-c2nc(-c3c[nH]c4c(Cl)nccc34)cs2)c2cc(Br)ccc21"
readout_type = "growth"
unit_descriptor = "%"
quantitative_readout = 54.1

[[record]]
compound = "O=C(Nc1ccc(-c2ccc3c(c2)NC(=O)/C3=C\\c2ccc[nH]2)cc1)NC1CC1"
readout_type = "growth"
unit_descriptor = "%"
quantitative_readout = 117

[[record]]
compound = "O=C(CNCCN1CCOCC1)N1c2cccc3cccc(c23)N(C(=O)CNCCN2CCOCC2)C1c1cn(-c2ccccc2)nc1-c1cccc([N+](=O)[O-])c1"
readout_type = "growth"
unit_descriptor = "%"
quantitative_readout = 90.3

[[record]]
compound = "c1ccc2c(-c3nccs3)c[nH]c2c1"
readout_type = "growth"
unit_descriptor = "%"
quantitative_readout = 111

[[record]]
compound = "S=c1cc(S)c2cc(Br)ccc2[nH]1"
readout_type = "growth"
unit_descriptor = "%"
quantitative_readout = 87.1

[[record]]
compound = "COc1cccc(-c2cc(C(=O)Nc3ccc(/C=C/c4ccc(OC5CCN(C)CC5)cc4)cc3)ccc2OC)c1"
readout_type = "growth"
unit_descriptor = "%"
quantitative_readout = 83.7

[[record]]
compound = "Cn1c(N2NC(=O)C(N=Nc3ccc(S(N)(=O)=O)cc3)C2=O)nc(-c2ccco2)c(C#N)c1=O (centres undefined)"
readout_type = "growth"
unit_descriptor = "%"
quantitative_readout = 88.7

[[record]]
compound = "CCOC(=O)C1=C(C)NC(SCc2cc(=O)oc3ccc(F)cc23)=N[C@@H]1c1cccc2ccccc12"
readout_type = "growth"
unit_descriptor = "%"
quantitative_readout = 109


Dear colleague, could you send me growth for each of the items below? Thanks.
1. CCCCCC(=O)Oc1ccc(/C(=C(/C)Cc2ccc(OC)cc2)c2ccc(OCCCN(C)C)cc2)cc1
2. CCCCNC(=O)Oc1ccc(/C(=C(\C)c2ccccc2)c2ccc(OCCN3CCCCC3)cc2)cc1
3. COc1cccc(-c2nc3occn3c2-c2ccnc(NCCNS(=O)(=O)c3cccc4ccccc34)n2)c1
4. COc1cc(CC(=O)n2ncc3ccc(N)cc32)cc(OC)c1OC
5. CCOC(=O)c1cc(C(=O)c2ccc(OC)c(OC)c2)n2ccc(/C=C/c3cc[n+](CC(=O)c4ccc(OC)c(OC)c4)cc3)cc12
6. CCN(CC)CCCC(C)Nc1cc(O)cc2cccnc12 (centres undefined)

75.9
-24.1
104
105
98.7
93.8
